molecular target: Brd3 (Homo sapiens); experiment: Time-dependent BET degradation, immunoblot; assay type: cell-based; details: HEK293, Brd3, 1 μM; time to reach 50% of the Dmax
Sequence (Q15059 whole entry): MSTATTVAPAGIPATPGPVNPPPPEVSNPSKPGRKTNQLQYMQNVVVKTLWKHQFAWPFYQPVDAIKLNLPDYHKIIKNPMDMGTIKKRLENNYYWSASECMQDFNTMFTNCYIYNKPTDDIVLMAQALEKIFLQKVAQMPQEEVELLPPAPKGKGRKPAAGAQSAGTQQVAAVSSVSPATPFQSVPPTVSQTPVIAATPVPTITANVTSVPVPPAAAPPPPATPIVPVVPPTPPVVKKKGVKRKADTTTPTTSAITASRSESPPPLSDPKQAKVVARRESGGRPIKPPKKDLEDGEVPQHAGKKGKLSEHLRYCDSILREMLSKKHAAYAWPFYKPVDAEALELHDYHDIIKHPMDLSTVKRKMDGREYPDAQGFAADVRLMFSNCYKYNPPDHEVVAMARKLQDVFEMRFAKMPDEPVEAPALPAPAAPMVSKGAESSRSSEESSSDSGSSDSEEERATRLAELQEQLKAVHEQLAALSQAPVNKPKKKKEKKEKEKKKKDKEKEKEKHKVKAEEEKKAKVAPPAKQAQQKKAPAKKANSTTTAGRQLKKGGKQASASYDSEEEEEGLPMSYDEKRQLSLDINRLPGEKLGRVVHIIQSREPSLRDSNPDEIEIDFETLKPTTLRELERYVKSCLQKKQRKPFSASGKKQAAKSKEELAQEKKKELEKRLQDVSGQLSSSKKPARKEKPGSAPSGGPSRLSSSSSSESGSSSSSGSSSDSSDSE
// values below are reported T1/2
PARAMETER: T1/2 (h)

Cc1sc2c(c1C)C(c1ccc(Cl)cc1)=N[C@@H](CC(=O)NCCCCNC(=O)c1cc(SC(=O)c3ccccc3)c3ncc(C(=O)NCCc4nccs4)cc3c1)c1nnc(C)n1-2 :: 1.6
Cc1sc2c(c1C)C(c1ccc(Cl)cc1)=N[C@@H](CC(=O)NCCOCCNC(=O)c1cc(SC(=O)c3ccccc3)c3ncc(C(=O)NCCc4nccs4)cc3c1)c1nnc(C)n1-2 :: 1.5
Cc1sc2c(c1C)C(c1ccc(Cl)cc1)=N[C@@H](CC(=O)NCCOCCNC(=O)c1cc(S)c3ncc(C(=O)NCCc4nccs4)cc3c1)c1nnc(C)n1-2 :: 2.7
Cc1sc2c(c1C)C(c1ccc(Cl)cc1)=N[C@@H](CC(=O)NCCCCNC(=O)c1cc(S)c3ncc(C(=O)NCCc4nccs4)cc3c1)c1nnc(C)n1-2 :: 2.9

----------
target: Brd4 (L) (Homo sapiens, UniProt O60885); construct: endogenous in cells; host or cells: HEK293 (CRL-1573), HeLa (CCL-2); experiment: Time-dependent BET degradation, immunoblot; format: cell-based; conditions: HEK293, Brd4 (L), 1 μM; time to reach 50% of the Dmax
// values below are reported T1/2
PARAMETER: T1/2

Cc1sc2c(c1C)C(c1ccc(Cl)cc1)=N[C@@H](CC(=O)NCCCCNC(=O)c1cc(S)c3ncc(C(=O)NCCc4nccs4)cc3c1)c1nnc(C)n1-2 [Example 11JQ7] :: 1.2 h
Cc1sc2c(c1C)C(c1ccc(Cl)cc1)=N[C@@H](CC(=O)NCCCCNC(=O)c1cc(SC(=O)c3ccccc3)c3ncc(C(=O)NCCc4nccs4)cc3c1)c1nnc(C)n1-2 [Example 11JQ16] :: 1.0 h
Cc1sc2c(c1C)C(c1ccc(Cl)cc1)=N[C@@H](CC(=O)NCCOCCNC(=O)c1cc(SC(=O)c3ccccc3)c3ncc(C(=O)NCCc4nccs4)cc3c1)c1nnc(C)n1-2 [Example 11JQ15] :: 0.8 h
Cc1sc2c(c1C)C(c1ccc(Cl)cc1)=N[C@@H](CC(=O)NCCOCCNC(=O)c1cc(S)c3ncc(C(=O)NCCc4nccs4)cc3c1)c1nnc(C)n1-2 [Example 11JQ1] :: 1.6 h

----------
// values below are reported DC50
target: Brd4 (S) (Homo sapiens); construct: endogenous in cells; host or cells: HEK293 (CRL-1573), HeLa (CCL-2); test: Concentration-dependent BET degradation, immunoblot; type: cell-based; details: HeLa, 4 h, 1 nM-10 μM
PARAMETER: DC50

Cc1sc2c(c1C)C(c1ccc(Cl)cc1)=N[C@@H](CC(=O)NCCOCCNC(=O)c1cc(S)c3ncc(C(=O)NCCc4nccs4)cc3c1)c1nnc(C)n1-2 :: 0.051 to 0.5 µM
Cc1sc2c(c1C)C(c1ccc(Cl)cc1)=N[C@@H](CC(=O)NCCCCNC(=O)c1cc(S)c3ncc(C(=O)NCCc4nccs4)cc3c1)c1nnc(C)n1-2 :: ≤ 0.05 µM
Cc1sc2c(c1C)C(c1ccc(Cl)cc1)=N[C@@H](CC(=O)NCCOCCNC(=O)c1cc(SC(=O)c3ccccc3)c3ncc(C(=O)NCCc4nccs4)cc3c1)c1nnc(C)n1-2 :: 0.051 to 0.5 µM
Cc1sc2c(c1C)C(c1ccc(Cl)cc1)=N[C@@H](CC(=O)NCCCCNC(=O)c1cc(S)c3ncc(C(=O)NCc4ccc(F)cc4)cc3c1)c1nnc(C)n1-2 :: ≥ 0.501 µM
Cc1sc2c(c1C)C(c1ccc(Cl)cc1)=N[C@@H](CC(=O)NCCCCNC(=O)c1cc(SC(=O)c3ccccc3)c3ncc(C(=O)NCCc4nccs4)cc3c1)c1nnc(C)n1-2 :: 0.051 to 0.5 µM

----------
target: Brd4 (L) (Homo sapiens, UniProt O60885); construct: endogenous in cells; host or cells: HEK293 (CRL-1573), HeLa (CCL-2); assay: Concentration-dependent BET degradation, immunoblot; assay type: cell-based; conditions: HEK293, Brd4 (L), 4 h, 1 nM-10 μM
PARAMETER: DC50

Cc1sc2c(c1C)C(c1ccc(Cl)cc1)=N[C@@H](CC(=O)NCCOCCNC(=O)c1cc(SC(=O)c3ccccc3)c3ncc(C(=O)NCCc4nccs4)cc3c1)c1nnc(C)n1-2 [Example 11JQ15] :: 51 to 500 nM
Cc1sc2c(c1C)C(c1ccc(Cl)cc1)=N[C@@H](CC(=O)NCCCCNC(=O)c1cc(S)c3ncc(C(=O)NCCc4nccs4)cc3c1)c1nnc(C)n1-2 [Example 11JQ7] :: 51 to 500 nM
Cc1sc2c(c1C)C(c1ccc(Cl)cc1)=N[C@@H](CC(=O)NCCOCCNC(=O)c1cc(S)c3ncc(C(=O)NCCc4nccs4)cc3c1)c1nnc(C)n1-2 [Example 11JQ1] :: 51 to 500 nM

Just for reference, patent US11925690B2 is where these values come from.
